biological target: NAD-dependent protein deacetylase sirtuin-1 (Homo sapiens); assay: biochemical
Description: Inhibition of full length human SIRT1 expressed in Escherichia coli BL21 (DE3) cells using fluorogenic 7-amino-4-methylcoumarin (AMC)-labeled peptide by fluorescence assay
readout-type: IC50 (µM)

Completed entries (count: 2):
Cc1ccc(C(=O)Nc2cccc3c(Oc4cncc(C(N)=O)c4)cccc23)cc1[N+](=O)[O-]; 100
NC(=O)c1cncc(Sc2cccc3ccccc23)c1; 30.3

A = Cc1ccc(C(=O)Nc2cccc3cc(Oc4cncc(C(N)=O)c4)ccc23)cc1[N+](=O)[O-]
B = NC(=O)c1cncc(Oc2ccc3ccccc3c2)c1
Task: Select one: A or B . Criterion: greater recorded IC50. Lab note: record the label of whichever item you select.
Result: B

P = NC(=O)c1cncc(Oc2cccc3c(NC(=O)c4cccc([N+](=O)[O-])c4)cccc23)c1
Q = NC(=O)c1cncc(Oc2cccc3c(NC(=O)c4ccncc4)cccc23)c1
R = NC(=O)c1cncc(Nc2ccc3ccccc3c2)c1
Task: Reorder the items by IC50, least to greatest. // respond by listing labels in the order requested
Result: Q, R, P

I = NC(=O)c1cncc(Sc2ccc3ccccc3c2)c1
II = Cc1ccc(C(=O)Nc2cccc3cc(Oc4cncc(C(N)=O)c4)ccc23)cc1
Task: Pick one: I or II . Which has the bigger IC50 number? Could you answer with the label of the item you picked?
Result: I
(I: 26.9 µM, II: 3.82 µM)

P = NC(=O)c1cncc(Oc2ccc3c(NC(=O)c4cccc([N+](=O)[O-])c4)cccc3c2)c1
Q = Cc1ccc(C(=O)Nc2cccc3c(Oc4cncc(C(N)=O)c4)cccc23)cc1
R = NC(=O)c1cncc(Oc2cccc3c(NC(=O)c4cccnc4)cccc23)c1
S = NC(=O)c1cncc(Nc2cccc3ccccc23)c1
T = NC(=O)c1cncc(Oc2cccc3ccccc23)c1
Task: Reorder: IC50, max to min. I would appreciate it if you listed the labels in the requested order.
Result: R, S, Q, P, T

1 = N#C/C(=C\c1ccc(-c2cc(Cl)ccc2Cl)o1)C(=O)Nc1cccc2ncccc12
2 = NC(=O)c1cncc(Oc2ccc3c(NC(=O)c4ccccc4)cccc3c2)c1
Task: # argmax over IC50 for candidates 1 and 2 Bench note: the answer is the label of the chosen record.
Result: 1
(1: 135 µM, 2: 22.4 µM)

====

Target: UniProt Q96EB6
Sequence (whole entry): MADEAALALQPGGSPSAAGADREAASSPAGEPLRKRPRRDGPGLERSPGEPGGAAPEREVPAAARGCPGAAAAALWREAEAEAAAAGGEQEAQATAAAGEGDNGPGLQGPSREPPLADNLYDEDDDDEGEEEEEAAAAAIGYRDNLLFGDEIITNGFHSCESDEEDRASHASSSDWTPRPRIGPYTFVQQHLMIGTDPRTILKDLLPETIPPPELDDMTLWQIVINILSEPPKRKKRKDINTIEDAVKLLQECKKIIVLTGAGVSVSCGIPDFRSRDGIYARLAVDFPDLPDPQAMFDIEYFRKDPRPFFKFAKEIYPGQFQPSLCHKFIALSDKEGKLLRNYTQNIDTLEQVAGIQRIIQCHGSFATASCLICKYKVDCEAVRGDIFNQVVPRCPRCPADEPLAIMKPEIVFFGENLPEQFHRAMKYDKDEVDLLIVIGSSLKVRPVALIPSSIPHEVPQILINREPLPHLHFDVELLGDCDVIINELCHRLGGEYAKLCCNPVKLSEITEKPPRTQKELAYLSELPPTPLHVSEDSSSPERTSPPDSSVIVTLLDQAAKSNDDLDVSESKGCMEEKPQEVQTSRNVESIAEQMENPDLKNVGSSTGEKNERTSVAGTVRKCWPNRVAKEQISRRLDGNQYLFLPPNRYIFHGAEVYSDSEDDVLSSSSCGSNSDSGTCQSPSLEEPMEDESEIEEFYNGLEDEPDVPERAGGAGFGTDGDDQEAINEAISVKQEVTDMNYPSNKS
Test: Inhibition of full length human SIRT1 expressed in Escherichia coli BL21 (DE3) cells at 100 uM using fluorogenic 7-amino-4-methylcoumarin (AMC)-labeled peptide by fluorescence assay
readout-type: inhibition (%)

a = Nc1cccc(C(=O)Nc2cccc3cccc(S(=O)(=O)O)c23)c1
b = NC(=O)c1ccc(Oc2ccc3ccccc3c2)nc1
c = NC(=O)c1cccc(Oc2ccc3ccccc3c2)c1
d = NC(=O)c1ccc(Nc2cccc3ccccc23)nc1
Task: Order the entries above by descending inhibition. Reply with the labels, ordered as the question asks.
Result: c, b, d, a

This collection of values is drawn from ChEMBL document CHEMBL3351796.
